This section presents molecules with their documented Cell Viability (100%), 20 μM, 48 h, HRM values.
test system: HRM cells (human renal mesangial cells); test: in vitro; type: cell-based; details: 20 µM
// return numeric value only (unit: %, not printed)

COc1cccc(-n2cc(-c3cccc(NC(=O)c4cn5c(c(OC)c4=O)C(=O)N4C(C)CCOC4C5)c3)nn2)c1 (stereo not drawn): 94.97
COc1c2n(cc(C(=O)Nc3cccc(-c4cn(-c5ccccc5Br)nn4)c3)c1=O)CC1OCCC(C)N1C2=O (stereo not drawn): 100.10

Here is the next item to consider.
Q: Specify reported Cell Viability (100%), 20 μM, 48 h, HRM for the molecule shown: COc1c2n(cc(C(=O)Nc3cccc(-c4cn(-c5ccccc5I)nn4)c3)c1=O)CC1OCCC(C)N1C2=O (stereo not drawn)
A: 92.77

---

tested on: Huh7 cells; assay: CCK8 cell viability assay, Huh7; format: cell-based, human; details: 20 μM, Huh7, CCK8, control taken as 100%
Rule: Cell Viability (100%), 20 μM, 48 h, Huh7 of 50% or more gives fulfilled; anything lower gives not fulfilled.

COc1c2n(cc(C(=O)Nc3cccc(-c4cn(-c5cc(C(F)(F)F)ccc5C(F)(F)F)nn4)c3)c1=O)CC1OCCC(C)N1C2=O (stereo not drawn): not fulfilled
CCOc1ccc(-n2cc(-c3cccc(NC(=O)c4cn5c(c(OC)c4=O)C(=O)N4C(C)CCOC4C5)c3)nn2)cc1 (stereo not drawn): fulfilled
COc1c2n(cc(C(=O)Nc3cccc(-c4cn(-c5ccccc5OC(F)(F)F)nn4)c3)c1=O)CC1OCCC(C)N1C2=O (stereo not drawn): not fulfilled
COc1c2n(cc(C(=O)Nc3cccc(-c4cn(-c5cccc(C)c5)nn4)c3)c1=O)CC1OCCC(C)N1C2=O (stereo not drawn): not fulfilled
COc1c2n(cc(C(=O)Nc3cccc(-c4cn(-c5ccc(C(F)(F)F)cc5)nn4)c3)c1=O)CC1OCCC(C)N1C2=O (stereo not drawn): fulfilled

Q: Dear colleague, could you confirm whether COc1c2n(cc(C(=O)Nc3cccc(-c4cn(-c5ccccc5Br)nn4)c3)c1=O)CC1OCCC(C)N1C2=O (stereo not drawn) has Cell Viability (100%), 20 μM, 48 h, Huh7 at or above 50%?
A: not fulfilled

Q: # bool: Cell Viability (100%), 20 μM, 48 h, Huh7 of COc1ccc(-n2cc(-c3cccc(NC(=O)c4cn5c(c(OC)c4=O)C(=O)N4C(C)CCOC4C5)c3)nn2)cc1OC (stereo not drawn) >= 50%
A: fulfilled

Q: Hi, just wondering whether COc1cccc(-n2cc(-c3cccc(NC(=O)c4cn5c(c(OC)c4=O)C(=O)N4C(C)CCOC4C5)c3)nn2)c1 (stereo not drawn) shows Cell Viability (100%), 20 μM, 48 h, Huh7 of 50% or higher.
A: not fulfilled

Q: // inclusive: Cell Viability (100%), 20 μM, 48 h, Huh7 at least 50%? input: COc1c2n(cc(C(=O)Nc3cccc(-c4cn(-c5ccc(C)cc5)nn4)c3)c1=O)CC1OCCC(C)N1C2=O (stereo not drawn)
A: fulfilled

Q: Is it the case that COc1c2n(cc(C(=O)Nc3cccc(-c4cn(-c5ccccc5F)nn4)c3)c1=O)CC1OCCC(C)N1C2=O (stereo not drawn) has Cell Viability (100%), 20 μM, 48 h, Huh7 reaching or exceeding 50%?
A: fulfilled

Q: Kindly determine if Cell Viability (100%), 20 μM, 48 h, Huh7 recorded for COc1c2n(cc(C(=O)Nc3cccc(-c4cn(-c5ccccc5Cl)nn4)c3)c1=O)CC1OCCC(C)N1C2=O (stereo not drawn) is above or exactly 50%.
A: not fulfilled

Q: Is Cell Viability (100%), 20 μM, 48 h, Huh7 at least 50%? Consider COc1cc([N+](=O)[O-])ccc1-n1cc(-c2cccc(NC(=O)c3cn4c(c(OC)c3=O)C(=O)N3C(C)CCOC3C4)c2)nn1 (stereo not drawn)
A: fulfilled

Q: Hello, I need to know if COc1c2n(cc(C(=O)Nc3cccc(-c4cn(Cc5ccccc5F)nn4)c3)c1=O)CC1OCCC(C)N1C2=O (stereo not drawn) has measured Cell Viability (100%), 20 μM, 48 h, Huh7 not below 50%. Thanks!
A: fulfilled

Q: State whether the measured Cell Viability (100%), 20 μM, 48 h, Huh7 reaches 50%, counting equality as reaching it, for COc1c2n(cc(C(=O)Nc3cccc(-c4cn(-c5c(C)cc(C)cc5C)nn4)c3)c1=O)CC1OCCC(C)N1C2=O (stereo not drawn)
A: fulfilled

Q: Does the reported Cell Viability (100%), 20 μM, 48 h, Huh7 for COc1c2n(cc(C(=O)Nc3cccc(-c4cn(-c5ccccc5)nn4)c3)c1=O)CC1OCCC(C)N1C2=O (stereo not drawn) fall at or above the 50% mark?
A: fulfilled

---

System: hepG2 cells
Experiment: CCK8 cell viability assay, hepG2
Type: cell-based, human
Conditions: 48 h, hepG2, CCK8; read-out: half maximal inhibitory concentration (IC50), hepG2
Method: This study aimed to assess the anti-proliferative activity of dolutegravir-1,2,3-triazole derivatives on hepatocellular carcinoma cell lines, Huh7 and hepG2. A comprehensive CCK8 assay was employed to evaluate the impact of these compounds on cell viability, with cells treated at a concentration of 20 μM for 48 h. […] CCK8 assay was used to measure cell viability. […] Absorbance was measured using a Microplate spectrophotometer (Thermo, Waltham, MA, USA) at 450 nm. […]
The following compounds are listed with their measured IC50 values.
Reply with just the number (in µM).

Some compounds with known IC50 results, for comparison:
COc1ccccc1-n1cc(-c2cccc(NC(=O)c3cn4c(c(OC)c3=O)C(=O)N3C(C)CCOC3C4)c2)nn1 (stereo not shown) [Compound 5t]: 11.2
COc1c2n(cc(C(=O)Nc3cccc(-c4cn(-c5cc(C(F)(F)F)ccc5C(F)(F)F)nn4)c3)c1=O)CC1OCCC(C)N1C2=O (stereo not shown) [Compound 5q]: 18.5
CCc1ccccc1-n1cc(-c2cccc(NC(=O)c3cn4c(c(OC)c3=O)C(=O)N3C(C)CCOC3C4)c2)nn1 (stereo not shown) [Compound 5k]: 15.2
COc1c2n(cc(C(=O)Nc3cccc(-c4cn(-c5cccc(C)c5)nn4)c3)c1=O)CC1OCCC(C)N1C2=O (stereo not shown) [Compound 5f]: 12.1
COc1c2n(cc(C(=O)Nc3cccc(-c4cn(-c5ccccc5OC(F)(F)F)nn4)c3)c1=O)CC1OCCC(C)N1C2=O (stereo not shown) [Compound 5i]: 9.43
COc1c2n(cc(C(=O)Nc3cccc(-c4cn(-c5ccccc5Cl)nn4)c3)c1=O)CC1OCCC(C)N1C2=O (stereo not shown) [Compound 5v]: 24.8
COc1cccc(-n2cc(-c3cccc(NC(=O)c4cn5c(c(OC)c4=O)C(=O)N4C(C)CCOC4C5)c3)nn2)c1 (stereo not shown) [Compound 5l]: 10.6
COc1c2n(cc(C(=O)Nc3cccc(-c4cn(-c5ccccc5Br)nn4)c3)c1=O)CC1OCCC(C)N1C2=O (stereo not shown) [Compound 5u]: 34.7

Q: Fill in IC50 for record COc1c2n(cc(C(=O)Nc3cccc(-c4cn(-c5cccc(C(F)(F)F)c5)nn4)c3)c1=O)CC1OCCC(C)N1C2=O (stereo not shown) [Compound 5p]
A: 4.83

Q: Entry COc1c2n(cc(C(=O)Nc3cccc(-c4cn(Cc5ccccc5Br)nn4)c3)c1=O)CC1OCCC(C)N1C2=O (stereo not shown) [Compound 6c] needs its IC50 filled in; supply it.
A: 27.8

Q: Please look at this compound and report its IC50: COc1c2n(cc(C(=O)Nc3cccc(-c4cn(-c5ccccc5I)nn4)c3)c1=O)CC1OCCC(C)N1C2=O (stereo not shown) [Compound 5w]
A: 25.7

Q: Note down IC50 recorded for COc1c2n(cc(C(=O)Nc3cccc(-c4cn(Cc5cccc(Br)c5)nn4)c3)c1=O)CC1OCCC(C)N1C2=O (stereo not shown) [Compound 6e]
A: 19.7

Q: Look up and report measured IC50 for this entry: COc1c2n(cc(C(=O)Nc3cccc(-c4cn(-c5ccccc5C(F)(F)F)nn4)c3)c1=O)CC1OCCC(C)N1C2=O (stereo not shown) [Compound 5c]
A: 18.3

---

Measured Cell Viability (100%), 20 μM, 48 h, HRM values are reported for all entries that follow.
tested on: HRM cells (human renal mesangial cells); test: in vitro; assay type: cell-based; conditions: 20 µM
Give the quantity in %, number only.

COc1c2n(cc(C(=O)Nc3cccc(-c4cn(Cc5ccccc5Br)nn4)c3)c1=O)CC1OCCC(C)N1C2=O (centres unmarked) [Compound 6c]: 105.55
COc1c2n(cc(C(=O)Nc3cccc(-c4cn(Cc5cccc(Br)c5)nn4)c3)c1=O)CC1OCCC(C)N1C2=O (centres unmarked) [Compound 6e]: 102.27

Q: Provide measured Cell Viability (100%), 20 μM, 48 h, HRM value, entry: CCOc1ccc(-n2cc(-c3cccc(NC(=O)c4cn5c(c(OC)c4=O)C(=O)N4C(C)CCOC4C5)c3)nn2)cc1 (centres unmarked) [Compound 5h]
A: 102.23

Q: Respond only with Cell Viability (100%), 20 μM, 48 h, HRM recorded for COc1c2n(cc(C(=O)Nc3cccc(-c4cn(Cc5ccccc5C(F)(F)F)nn4)c3)c1=O)CC1OCCC(C)N1C2=O (centres unmarked) [Compound 6h]
A: 93.73

Q: Find the measured Cell Viability (100%), 20 μM, 48 h, HRM of CCc1ccccc1-n1cc(-c2cccc(NC(=O)c3cn4c(c(OC)c3=O)C(=O)N3C(C)CCOC3C4)c2)nn1 (centres unmarked) [Compound 5k] and report it.
A: 0.81

Q: Give a short answer stating reported Cell Viability (100%), 20 μM, 48 h, HRM for COc1c2n(cc(C(=O)Nc3cccc(-c4cn(-c5ccc(F)cc5)nn4)c3)c1=O)CC1OCCC(C)N1C2=O (centres unmarked) [Compound 5g] .
A: 103.67

Q: Please list Cell Viability (100%), 20 μM, 48 h, HRM recorded for the compound COc1c2n(cc(C(=O)Nc3cccc(-c4cn(Cc5ccccc5C)nn4)c3)c1=O)CC1OCCC(C)N1C2=O (centres unmarked) [Compound 6g]
A: 101.52

Q: In one line, give reported Cell Viability (100%), 20 μM, 48 h, HRM of the entry COc1c2n(cc(C(=O)Nc3cccc(-c4cn(-c5ccc(C)cc5)nn4)c3)c1=O)CC1OCCC(C)N1C2=O (centres unmarked) [Compound 5y] .
A: 103.82

Q: Input COc1c2n(cc(C(=O)Nc3cccc(-c4cn(-c5ccc(C(F)(F)F)cc5)nn4)c3)c1=O)CC1OCCC(C)N1C2=O (centres unmarked) [Compound 5d] , output reported Cell Viability (100%), 20 μM, 48 h, HRM.
A: 108.43

Q: Give reported Cell Viability (100%), 20 μM, 48 h, HRM value for COc1ccc(-n2cc(-c3cccc(NC(=O)c4cn5c(c(OC)c4=O)C(=O)N4C(C)CCOC4C5)c3)nn2)cc1OC (centres unmarked) [Compound 5j]
A: 108.54

Q: // Input: COc1c2n(cc(C(=O)Nc3cccc(-c4cn(-c5c(C)cc(C)cc5C)nn4)c3)c1=O)CC1OCCC(C)N1C2=O (centres unmarked) [Compound 5z] . Output its Cell Viability (100%), 20 μM, 48 h, HRM only.
A: 100.35

Q: Answer with the recorded Cell Viability (100%), 20 μM, 48 h, HRM for the compound listed here: COc1c2n(cc(C(=O)Nc3cccc(-c4cn(-c5ccccc5)nn4)c3)c1=O)CC1OCCC(C)N1C2=O (centres unmarked) [Compound 5o]
A: 100.28

Q: For the compound COc1c2n(cc(C(=O)Nc3cccc(-c4cn(Cc5ccccc5F)nn4)c3)c1=O)CC1OCCC(C)N1C2=O (centres unmarked) [Compound 6f] , give its reported Cell Viability (100%), 20 μM, 48 h, HRM.
A: 102.19

Q: Tell me its Cell Viability (100%), 20 μM, 48 h, HRM given COc1c2n(cc(C(=O)Nc3cccc(-c4cn(Cc5ccccc5)nn4)c3)c1=O)CC1OCCC(C)N1C2=O (centres unmarked) [Compound 6b] as the entry.
A: 99.53
